Where do the numbers come from? From ChEMBL document CHEMBL4422611.

Test system: Plasmodium falciparum
PROTOCOL_SUMMARY: Antimalarial activity against synchronized ring stage of Plasmodium falciparum infected in human RBC measured after 48 hrs
Format: functional, organism-based
PROPERTY_LABEL: IC50 (µg/mL)
Answers are plain numbers, in µg/mL.

I'm hoping you can list IC50 for every compound here, please.
1. Cc1nn(-c2ccccc2)c(-n2ccnc2)c1C1C(C#N)=C(N)Oc2ccc3ccccc3c21 (stereo not drawn)
2. Cc1nn(-c2ccccc2)c2c1C(c1c(C)nn(-c3ccccc3)c1-n1ccnc1)C(C#N)=C(N)O2 (stereo not drawn)
3. Cc1nn(-c2ccccc2)c(-n2ccnc2)c1C1CC(c2ccc(Br)cc2)=NO1 (stereo not drawn)
4. Cc1nn(-c2ccccc2)c(-n2ccnc2)c1C1C(C#N)=C(N)Oc2c1c(=O)oc1ccccc21 (stereo not drawn)
5. Cc1n[nH]c2c1C(C1CCCCC1)c1c(n(C)c(=O)n(C)c1=O)N2 (stereo not drawn)
6. CCOC(=O)C1=C(N)Oc2c(c(=O)n(C)c(=O)n2C)C1c1c(C)nn(-c2ccccc2)c1-n1ccnc1 (stereo not drawn)
7. Cc1nn(-c2ccccc2)c2c1C(c1cccs1)c1c(n(C)c(=O)n(C)c1=O)N2 (stereo not drawn)

Result:
0.32
0.034
0.036
0.42
0.033
0.049
0.033
